# study-system: F317L Bcr-abl (Homo sapiens, UniProt P00519, F317L)
# Construct: BCR (N-terminal fusion partner); the other entry of the earlier key: BCR (P11274, Breakpoint cluster region protein)
# protocol-details: Antiproliferative effect on Ba/F3 cells expressing mutant BCR-Abl F317L
observable: IC50 (nM)
# output: bare number, implied unit nM

Need IC50, item Cc1ccc(NC(=O)c2cccc(C(F)(F)F)c2)cc1N1Cc2cnc(Nc3cccc(N)c3)nc2N(C)C1=O [Example 2]
5

----------
# study-system: T3151 Bcr-abl (Homo sapiens, UniProt P00519, T315I)
# Construct: BCR (N-terminal fusion partner)
# protocol-details: Antiproliferative effect on Ba/F3 cells expressing mutant BCR-Abl T3151
observable: pIC50
In textbook form, pIC50 equals minus log to base ten of the concentration in mol/L.

Requested field: pIC50. Item: Cc1ccc(NC(=O)c2cccc(C(F)(F)F)c2)cc1N1Cc2cnc(Nc3cccc(N)c3)nc2N(C)C1=O
8.52

----------
# study-system: E255V Bcr-abl (Homo sapiens, UniProt P00519, E255V)
# Construct: BCR (N-terminal fusion partner); the other entry of the earlier key: BCR (P11274, Breakpoint cluster region protein)
# protocol-details: Antiproliferative effect on Ba/F3 cells expressing mutant BCR-Abl E255V
observable: IC50 (nM)
Output spec: scalar in nM, unitless text.

Field request: IC50 | item: Cc1ccc(NC(=O)c2cccc(C(F)(F)F)c2)cc1N1Cc2cnc(Nc3cccc(N)c3)nc2N(C)C1=O [Example 2]
5

----------
# study-system: M351T Bcr-abl (Homo sapiens, UniProt P00519, M351T)
# Construct: BCR (N-terminal fusion partner); the other entry of the earlier key: BCR (P11274, Breakpoint cluster region protein)
# protocol-details: Antiproliferative effect on Ba/F3 cells expressing mutant BCR-Abl M351T
observable: IC50 (nM)
The answer is to be given in nM; state only the numeric part.

What reported IC50 corresponds to Cc1ccc(NC(=O)c2cccc(C(F)(F)F)c2)cc1N1Cc2cnc(Nc3cccc(N)c3)nc2N(C)C1=O [Example 2] on M351T Bcr-abl (Homo sapiens, UniProt P00519, M351T)?
5

# credit: patent US7642255B2
